The reported numbers originate from patent US10770169B2.

Catalogue of molecules with associated GI50
system: panel of 55 breast cancer cell lines; test: Cell growth inhibition assay (Cell Titer Glo, 72 h, 9 doses; GI50, TGI, LC50); type: cell-based, human; settings: HCC70 cell line; censored GI50 values; value is the negative log10 of mol/L
Write the number on its own, no unit after it.

These solved cases illustrate the format of a correct answer.
molecule: NC(=O)Nc1sc(-c2ccc(F)cc2)cc1C(N)=O
quantity-kind: GI50
measurement: 5.44
--
molecule: CC(=O)Nc1cccc(-n2c(=O)n(C3CC3)c(=O)c3c(Nc4ccc(I)cc4F)n(C)c(=O)c(C)c32)c1.C[S+](C)[O-] [GSK1120212B]
quantity-kind: GI50
measurement: 8.18
--
molecule: N#Cc1c(NC(=O)c2cccc3ccccc23)sc2c1CCCC2
quantity-kind: GI50
measurement: 5.64
--
molecule: Cc1cc(C(C)Nc2ccccc2)c2nc(N3CCOCC3)cc(=O)n2c1 (centres unmarked)
quantity-kind: GI50
measurement: 5.98
--
molecule: CCn1cc(-c2ccnc3[nH]c(-c4cccc(CN(C)C)c4)cc23)c(-c2ccc(NC(=O)N(C)C)cc2)n1
quantity-kind: GI50
measurement: 6.59

Query :: Form field: GI50 recorded for C[C@@H](Oc1cc(-n2cnc3ccc(CN4CCN(C)CC4)cc32)sc1C(N)=O)c1ccccc1C(F)(F)F [GSK461364A] with panel of 55 breast cancer cell lines (enter value)
Result :: 7.01

Query :: Similarly, `CC(C)Oc1ccc(C(=O)N[C@H](CNC(=O)CN(C)C)Cc2ccc(-c3cn4cccc([C@H](C)O)c4n3)cc2)cc1Cl` ?
Result :: 7.68

Query :: // next record Cc1cc(C(=O)N2CCN(c3cccc(Cl)c3)CC2)n(-c2ccccc2)n1 [XRP44X]
Result :: 5.98

Query :: Moving on to `Cc1cc(Nc2cc(N3CCN(C)CC3)nc(Sc3ccc(NC(=O)C4CC4)cc3)n2)n[nH]1`
Result :: 5.35

Query :: What would you report for `N.N.O=C([O-])C1(C(=O)[O-])CCC1.[Pt+2]` ?
Result :: 4.82

Query :: Please do the same for `CC(/C=C/C(=O)NO)=C\[C@@H](C)C(=O)c1ccc(N(C)C)cc1` as well.
Result :: 4.84

Query :: And the next one, `CC(C)(C)c1cc(C=C(C#N)C#N)cc(Br)c1O` ?
Result :: 5.21

Query :: Can you handle `O=c1[nH]c(=O)n([C@H]2C[C@H](O)[C@@H](CO)O2)cc1F` next?
Result :: 3.67

Query :: Entry to check: CNC(=O)c1c(F)cccc1Nc1nc(Nc2cc3c(cc2OC)CCN3C(=O)CN(C)C)nc2[nH]ccc12 [GSK1838705A]
Result :: 5.18

---

# maps each entry to its GI50
system: panel of 55 breast cancer cell lines; experiment: Cell growth inhibition assay (Cell Titer Glo, 72 h, 9 doses; GI50, TGI, LC50); assay type: cell-based, human; details: cell line SUM149PT; value is the negative log10 of mol/L
Please give the numeric answer without any surrounding text.

compound: Oc1cc(-c2nc(-c3ccccc3)[nH]c2-c2ccncc2)ccc1Cl [L-779450]
tested-on: panel of 55 breast cancer cell lines
GI50: 5.13
--
compound: O=C1NC(=O)/C(=C/c2ccc(-c3ccc(F)cc3O)o2)S1 [AS-252424]
tested-on: panel of 55 breast cancer cell lines
GI50: 4.66
--
compound: O=c1[nH]c2ccccc2n1C1CCN(Cc2ccc(-c3nc4cc5[nH]cnc5cc4nc3-c3ccccc3)cc2)CC1 [Sigma AKT1-2 inhibitor]
tested-on: panel of 55 breast cancer cell lines
GI50: 5.03
--
compound: NS(=O)(=O)c1ccc(Nc2nc(OCC3CCCCC3)c3[nH]cnc3n2)cc1 [NU6102]
tested-on: panel of 55 breast cancer cell lines
GI50: 5.08

Moving on to another compound below.
Query :: Consider the compound COc1cc2ncnc(Nc3cccc(Cl)c3)c2cc1OC [AG1478] and give its measured GI50.
Result :: 5.74
